System: SK-MEL-28 melanoma
Test: NCI-60 one-dose screen, 48 h
Settings: 10 µM unless noted
Procedure: Growth inhibition of the SK-MEL-28 human tumor cell line is measured as a screen for anti-cancer activity. Cells are grown in 96 well plates and exposed to the test compound for 48 hours. Compounds are tested at a single concentration, which is 10^-5 M for most compounds. The reported endpoint is percent growth (GI% or GIPRCNT), where numbers from 0 - 100% represent growth inhibition, and numbers from -100% - 0 represent cell death. For example, a value of 40 represents 60% growth inhibition. […]
The panel holds about 83,000 compounds, 20% with a hit somewhere; the sample as a whole holds those more often. The source made the active and inactive calls. The calls were made as follows: active = growth percent below 10; inactive = the rest.
Entry note: the call must match one of true for active, false for inactive

-- ask Which outcome did this test record for the compound `CC1=C(C)C(=O)C(Nc2cccc(C(F)(F)F)c2)=C(Br)C1=O` ?
-- reply false

-- ask Which outcome did this test record for the compound `CN(C)CC(=O)Nc1nc(-c2cccc(NS(=O)(=O)c3cccc4c(N(C)C)cccc34)c2)cs1` ?
-- reply false

-- ask Which outcome did this test record for the compound `COc1ccc(C(C)=C(c2ccc(OCCN(C)C)cc2)c2ccc(OCCN(C)C)cc2)cc1` ?
-- reply true

-- ask Which outcome did this test record for the compound `Cc1[nH]c(C(=O)Nc2ccc(S(=O)(=O)N3CCCCC3)cc2OCCOCCOCCOCCOCCOCCOCCOCCOCCOc2cc(S(=O)(=O)N3CCCCC3)ccc2NC(=O)c2[nH]c(C)c3c2CCCCC3=O)c2c1C(=O)CCCC2` ?
-- reply false

Data origin: PubChem BioAssay (NCI)
